# maps each entry to its self-cleavage
B1: LINE1-full (parent)
chain: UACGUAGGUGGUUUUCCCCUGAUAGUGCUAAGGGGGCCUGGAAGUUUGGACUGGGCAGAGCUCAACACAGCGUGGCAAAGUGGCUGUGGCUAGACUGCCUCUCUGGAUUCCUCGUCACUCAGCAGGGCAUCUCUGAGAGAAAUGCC

- Variants of: B1
- Protocol: self-cleavage, relative activity (ratio to wild type); higher = more cleavage; in vitro, sequencing; the parent is a self-cleaving ribozyme

Some variants with recorded self-cleavage:
>>> val("A31G C128U")
1.02
>>> val("U91C C145U")
0.43
>>> val("A2U A92U")
0.32
>>> val("U52C A59G")
0.16
>>> val("U1C G82A")
1.3

### Prompt Please report self-cleavage for the following variant: U9A A79G
### Response 1.01

### Prompt Please report self-cleavage for the following variant: A124G A129G
### Response 0.96

### Prompt Please report self-cleavage for the following variant: G10U U13C
### Response 0.83

### Prompt Please report self-cleavage for the following variant: U45C C131U
### Response 0.93
